Tested on: Staphylococcus aureus
procedure.text: Antibacterial activity against methicillin-, inducible MLS-resistant Staphylococcus aureus PU 32 by broth microdilution method
measurement.label: MIC

Examples with answers:
[
  {
    "smiles.str": "CC[C@H]1OC(=O)[C@H](C)[C@@H](OC/C=C/c2cccnc2)[C@H](C)[C@@H](O[C@@H]2O[C@H](C)C[C@H](N(C)C)[C@H]2O)[C@](C)(OC)C[C@@H](C)/C(=N\\OCc2ccccc2Cl)[C@H](C)[C@H]2OC(=O)O[C@@]21C",
    "assay.target": "Staphylococcus aureus",
    "MIC": "32 µg/mL"
  },
  {
    "smiles.str": "CC[C@H]1OC(=O)[C@H](C)[C@@H](OCC#Cc2cccnc2)[C@H](C)[C@@H](O[C@@H]2O[C@H](C)C[C@H](N(C)C)[C@H]2O)[C@](C)(OC)C[C@@H](C)/C(=N\\OCc2ccccc2Cl)[C@H](C)[C@H]2OC(=O)O[C@@]21C",
    "assay.target": "Staphylococcus aureus",
    "MIC": "64 µg/mL"
  },
  {
    "smiles.str": "CC[C@H]1OC(=O)[C@H](C)[C@@H](OC/C=C/c2cncnc2)[C@H](C)[C@@H](O[C@@H]2O[C@H](C)C[C@H](N(C)C)[C@H]2O)[C@](C)(OC)C[C@@H](C)/C(=N\\O)[C@H](C)[C@@H](O)[C@]1(C)O",
    "assay.target": "Staphylococcus aureus",
    "MIC": "> 256 µg/mL"
  },
  {
    "smiles.str": "CC[C@H]1OC(=O)[C@H](C)[C@@H](OC/C=C/c2ccc(-n3ccnc3)cc2)[C@H](C)[C@@H](O[C@@H]2O[C@H](C)C[C@H](N(C)C)[C@H]2O)[C@](C)(OC)C[C@@H](C)/C(=N\\OCc2ccccc2Cl)[C@H](C)[C@H]2OC(=O)O[C@@]21C",
    "assay.target": "Staphylococcus aureus",
    "MIC": "32 µg/mL"
  }
]

Provide each entry's MIC from the list below.
1. C=CCO[C@H]1[C@H](C)[C@@H](O[C@@H]2O[C@H](C)C[C@H](N(C)C)[C@H]2O)[C@](C)(OC)C[C@@H](C)C(=O)[C@H](C)[C@@H](O)[C@](C)(O)[C@@H](CC)OC(=O)[C@@H]1C
2. CC[C@H]1OC(=O)[C@H](C)[C@@H](O[C@H]2C[C@@](C)(OC)[C@@H](O)[C@H](C)O2)[C@H](C)[C@@H](O[C@@H]2O[C@H](C)C[C@H](N(C)C)[C@H]2O)[C@](C)(O)C[C@@H](C)CN(C)[C@H](C)[C@@H](O)[C@]1(C)O
3. CC[C@H]1OC(=O)[C@H](C)[C@@H](O/C=C\Cc2cncnc2)[C@H](C)[C@@H](O[C@@H]2O[C@H](C)C[C@H](N(C)C)[C@H]2O)[C@](C)(OC)C[C@@H](C)/C(=N\OCc2ccccc2Cl)[C@H](C)[C@H]2OC(=O)O[C@@]21C
4. C=CCO[C@H]1[C@H](C)[C@@H](O[C@@H]2O[C@H](C)C[C@H](N(C)C)[C@H]2O)[C@](C)(OC)C[C@@H](C)/C(=N\O)[C@H](C)[C@@H](O)[C@](C)(O)[C@@H](CC)OC(=O)[C@@H]1C
5. CC[C@H]1OC(=O)[C@H](C)[C@@H](O/C=C\Cc2cncnc2)[C@H](C)[C@@H](O[C@@H]2O[C@H](C)C[C@H](N(C)C)[C@H]2O)[C@](C)(OC)C[C@@H](C)/C(=N\OCc2ccccc2)[C@H](C)[C@@H](O)[C@]1(C)O
6. C=CCO[C@H]1[C@H](C)[C@@H](O[C@@H]2O[C@H](C)C[C@H](N(C)C)[C@H]2O)[C@](C)(OC)C[C@@H](C)C(=O)N[C@H](C)[C@@H](O)[C@](C)(O)[C@@H](CC)OC(=O)[C@@H]1C
7. CC[C@H]1OC(=O)[C@H](C)[C@@H](OC/C=C/c2cncnc2)[C@H](C)[C@@H](O[C@@H]2O[C@H](C)C[C@H](N(C)C)[C@H]2O)[C@](C)(OC)C[C@@H](C)/C(=N\OCc2ccccc2Cl)[C@H](C)[C@H]2OC(=O)O[C@@]21C

Key:
1: 256 µg/mL; 2: 8 µg/mL; 3: 32 µg/mL; 4: 128 µg/mL; 5: 4 µg/mL; 6: > 256 µg/mL; 7: 64 µg/mL

Exercise: What value of MIC on Staphylococcus aureus does CC[C@H]1OC(=O)[C@H](C)[C@@H](O/C=C\Cc2cncnc2)[C@H](C)[C@@H](O[C@@H]2O[C@H](C)C[C@H](N(C)C)[C@H]2O)[C@](C)(OC)C[C@@H](C)/C(=N\O)[C@H](C)[C@@H](O)[C@]1(C)O have?
Key: 0.064 µg/mL

----------
Provide the reported MIC of each item.
System: Streptococcus pneumoniae
procedure.text: Antibacterial activity against penicillin-, constitutive MLS-resistant Streptococcus pneumoniae PU 11 by broth microdilution method
Assay type: functional

Recorded results for 2 compounds are shown here.
[
  {
    "compound": "C=CCO[C@H]1[C@H](C)[C@@H](O[C@@H]2O[C@H](C)C[C@H](N(C)C)[C@H]2O)[C@](C)(OC)C[C@@H](C)/C(=N\\O)[C@H](C)[C@@H](O)[C@](C)(O)[C@@H](CC)OC(=O)[C@@H]1C",
    "MIC": "> 256 µg/mL"
  },
  {
    "compound": "CC[C@H]1OC(=O)[C@H](C)[C@@H](O/C=C\\Cc2cncnc2)[C@H](C)[C@@H](O[C@@H]2O[C@H](C)C[C@H](N(C)C)[C@H]2O)[C@](C)(OC)C[C@@H](C)/C(=N\\OCc2ccccc2Cl)[C@H](C)[C@H]2OC(=O)O[C@@]21C",
    "MIC": "32 µg/mL"
  }
]

For every item in the list below, what is its measured MIC?
1. CC[C@H]1OC(=O)[C@H](C)[C@@H](O[C@H]2C[C@@](C)(OC)[C@@H](O)[C@H](C)O2)[C@H](C)[C@@H](O[C@@H]2O[C@H](C)C[C@H](N(C)C)[C@H]2O)[C@](C)(OC)C[C@@H](C)C(=O)[C@H](C)[C@@H](O)[C@]1(C)O [CLARITHROMYCIN]
2. CC[C@H]1OC(=O)[C@H](C)[C@@H](O/C=C\Cc2cncnc2)[C@H](C)[C@@H](O[C@@H]2O[C@H](C)C[C@H](N(C)C)[C@H]2O)[C@](C)(OC)C[C@@H](C)/C(=N\OCc2ccccc2)[C@H](C)[C@@H](O)[C@]1(C)O
3. CC[C@H]1OC(=O)[C@H](C)[C@@H](OCC#Cc2cncnc2)[C@H](C)[C@@H](O[C@@H]2O[C@H](C)C[C@H](N(C)C)[C@H]2O)[C@](C)(OC)C[C@@H](C)/C(=N\OCc2ccccc2Cl)[C@H](C)[C@H]2OC(=O)O[C@@]21C

Key:
1. > 256 µg/mL
2. 64 µg/mL
3. 32 µg/mL

Quick request: MIC for each listed item, please.
1. CC[C@H]1OC(=O)[C@H](C)[C@@H](OC/C=C/c2cncnc2)[C@H](C)[C@@H](O[C@@H]2O[C@H](C)C[C@H](N(C)C)[C@H]2O)[C@](C)(OC)C[C@@H](C)/C(=N\O)[C@H](C)[C@@H](O)[C@]1(C)O
2. C=CCO[C@H]1[C@H](C)[C@@H](O[C@@H]2O[C@H](C)C[C@H](N(C)C)[C@H]2O)[C@](C)(OC)C[C@@H](C)C(=O)[C@H](C)[C@@H](O)[C@](C)(O)[C@@H](CC)OC(=O)[C@@H]1C
3. CC[C@H]1OC(=O)[C@H](C)[C@@H](O)[C@H](C)[C@@H](O[C@@H]2O[C@H](C)C[C@H](N(C)C)[C@H]2O)[C@](C)(OC)C[C@@H](C)C(=O)[C@H](C)[C@@H](O)[C@]1(C)O

Key:
1: > 256 µg/mL; 2: > 256 µg/mL; 3: > 256 µg/mL

----------
System: Streptococcus dysgalactiae
procedure.text: Antibacterial activity against efflux, erythromycin-resistant Streptococcus dysgalactiae A 1 by broth microdilution method
Format: functional
So basically, if MIC comes in under 20 µg/mL it's satisfied, and if it's 20 µg/mL or more it's not satisfied.

[
  {
    "compound": "CC[C@H]1OC(=O)[C@H](C)[C@@H](OCC#Cc2cncnc2)[C@H](C)[C@@H](O[C@@H]2O[C@H](C)C[C@H](N(C)C)[C@H]2O)[C@](C)(OC)C[C@@H](C)/C(=N\\O)[C@H](C)[C@@H](O)[C@]1(C)O",
    "assay.target": "Streptococcus dysgalactiae",
    "qualitative.label": "not satisfied"
  }
]

Exercise: Problem: For the compound CC[C@H]1OC(=O)[C@H](C)[C@@H](OCCCc2cccnc2)[C@H](C)[C@@H](O[C@@H]2O[C@H](C)C[C@H](N(C)C)[C@H]2O)[C@](C)(OC)C[C@@H](C)/C(=N\OCc2ccccc2Cl)[C@H](C)[C@H]2OC(=O)O[C@@]21C , is MIC under 20 µg/mL?
Key: satisfied

Exercise: Please give the result for CC[C@H]1OC(=O)[C@H](C)[C@@H](O/C=C\Cc2cncnc2)[C@H](C)[C@@H](O[C@@H]2O[C@H](C)C[C@H](N(C)C)[C@H]2O)[C@](C)(OC)C[C@@H](C)/C(=N\O)[C@H](C)[C@H]2OC(=O)O[C@@]21C too.
Key: satisfied

Exercise: Do the same for CC[C@H]1OC(=O)[C@H](C)[C@@H](OC/C=C/c2cncnc2)[C@H](C)[C@@H](O[C@@H]2O[C@H](C)C[C@H](N(C)C)[C@H]2O)[C@](C)(OC)C[C@@H](C)C(=O)[C@H](C)[C@@H](O)[C@]1(C)O please
Key: satisfied

Exercise: // next record CC[C@H]1OC(=O)[C@H](C)[C@@H](OCCCc2cncnc2)[C@H](C)[C@@H](O[C@@H]2O[C@H](C)C[C@H](N(C)C)[C@H]2O)[C@](C)(OC)C[C@@H](C)/C(=N\OCc2ccccc2Cl)[C@H](C)[C@H]2OC(=O)O[C@@]21C
Key: satisfied
